# Method Summary: in vitro
# Experimental Conditions: dog, plasma
# Description: Protein binding in dog plasma assessed as free fraction at 5 uM incubated for 5 hrs by equilibrium dialysis method
Result Type: fraction unbound at 5 h, 5 µM

What value of fraction unbound at 5 h, 5 µM has been reported for the following compound? C[C@@H]1COCCN1c1cc(N=[S@@](C)(=O)C2CC2)nc(-c2ccnc(N)c2)n1 0.55

----------
# Target Desc: Serine/threonine-protein kinase mTOR (Homo sapiens)
Result Type: pIC50
Give bare numbers, as −log10 of the molar value.

Recorded pIC50, per entry:
> print(dat)
                                   molecule  data.value
1  C[C@@H]1COCCN1c1cc(N=S(C)(C)=O)nc(-c2ccnc3[nH]ccc23)c1        5.80
2  COc1cc(-c2nc(N=[S@@](C)(=O)C3CC3)cc(N3CCOC[C@H]3C)n2)cc(N)n1        6.06
3  COc1cc(-c2nc(N=[S@@](C)(=O)C3COC3)cc(N3CCOC[C@H]3C)n2)cc(N)n1        6.38
4  Cc1cc2c(-c3nc(N=S(C)(C)=O)cc(N4CCOC[C@H]4C)n3)ccnc2[nH]1        6.30
5  CC[S@@](C)(=O)=Nc1cc(N2CCOC[C@H]2C)nc(-c2ccnc3[nH]ccc23)n1        5.95

For each of the molecules below, state pIC50.
1. CC[S@](C)(=O)=Nc1cc(N2CCOC[C@H]2C)nc(-c2ccnc3[nH]ccc23)n1
2. COc1cc(-c2nc(N=S(C)(C)=O)cc(N3CCOC[C@H]3C)n2)cc(N)n1
3. C[C@@H]1COCCN1c1cc(N2CCCN(C)S2(=O)=O)nc(-c2ccnc3[nH]ccc23)n1
4. C[C@@H]1COCCN1c1cc(N=S(C)(=O)C2COC2)nc(-c2ccnc3[nH]ccc23)n1 (mixture of isomers)

1: 6.05; 2: 5.66; 3: 7.09; 4: 6.51
